These data points were gathered from PubChem BioAssay (NCI).

- System: SF-295 CNS
- PROCEDURE DETAILS: NCI tumour cell line growth inhibition, 48 h
Each entry below carries its reported TGI.

Sample answers from the record:
CSc1cc(Br)ccc1-n1c(C(=O)c2ccccc2)c(SC)n(-c2ccccc2)c1=O :: > 100 µM
CCOC(=O)/C(N=Nc1ccc(-n2c(C)nc3ccc(Br)cc3c2=O)cc1)=C(/C)O :: > 100 µM
CC(=O)O[C@H]1C=CC(=O)C(C)CC1C (stereo partly drawn) :: > 100 µM
COC(=O)[C@@]1(Cc2ccc(O)cc2)C[C@@H]2Cc3ccccc3N2N1 :: > 100 µM
COc1cc(/C=C/c2nc(N)nnc2C)cc(OC)c1OC :: > 72.6 µM

Enter reported TGI observed with SF-295 CNS for NC(=S)N/N=C/c1ccc(N)cn1
> 10 µM

Reported TGI for SF-295 CNS, given O=c1oc2ccccc2c(O)c1/C=N/C(=S)NCc1ccccc1 ?
> 100 µM

Give the reported TGI for Cc1ccc(Nc2[nH]c(=O)[nH]c(=O)c2C)cc1Cl (system: SF-295 CNS).
72.3 µM

# get_value(readout= TGI, system= SF-295 CNS) for C[N+](C)(CCCCCC[N+](C)(C)CCCN1C(=O)c2cc3ccccc3cc2C1=O)CCCN1C(=O)c2cc3ccccc3cc2C1=O
> 37.5 µM

Lab note: need TGI for Cc1cc2c(C(C)C)c(O)c(O)c(C=NCCO)c2c(O)c1-c1c(C)cc2c(C(C)C)c(O)c(O)c(C=NCCO)c2c1O on SF-295 CNS, anyone have it?
5.51 µM

Notebook entry, SF-295 CNS assay: TGI of COc1ccc2c(c1)[n+]([O-])c(-c1ccc(Br)cc1)c(N)[n+]2[O-] = ?
> 100 µM

Query TGI on SF-295 CNS for CN(C)CC1CCC/C(=C\c2ccc(OC(=O)/C=C/c3ccccc3)cc2)C1=O (stereo not drawn)
13.7 µM

Find the measured TGI: item CC(=O)OCC1=C(C(=O)O)C(c2ccc3c(c2)OCO3)c2cc3c(cc2O1)OCO3 (stereo not drawn) , target or system SF-295 CNS.
> 100 µM

API: value(readout= TGI, system= SF-295 CNS, query= N=C(N)SCc1cc(Cl)cc(Cl)c1O )
55.7 µM

Provide value of TGI for this record tested with SF-295 CNS: CCCCCCC/C=C/[C@H]1O[C@]2(O)C(=O)C=C3C[C@@H](O[C@@H]4O[C@H](CO)[C@@H](O)C(O)[C@@H]4O)C[C@@H]3[C@H]2C=C1C (stereo partly drawn)
8.79 µM

Param readout= TGI; system= SF-295 CNS; entry= COc1c2c(cc3c1OCO3)C13C=CC(OC)CC1N(CC3)C2 (stereo not drawn) ; returns value.
> 100 µM

Please tell me: TGI of CO/C(=C/C(=O)C(Cl)(Cl)Cl)CC/C(=C\C(=O)C(Cl)(Cl)Cl)OC , system SF-295 CNS?
> 100 µM

Please tell me: TGI of C[C@]12CCC[C@H](O)[C@H]1C[C@H](CO)CC2 , system SF-295 CNS?
> 100 µM
